Just for reference, patent US20230057904A1 is where these values come from.

Target: ECM
Assay: ECM binding assay, ECL reaction, value divided by that of MRA
assay_readout: Luminescence ratio vs MRA (fold)
Field format: number, assumed fold, no unit text.

Which value of Luminescence ratio vs MRA has been reported for bivalent IgG antibody 25H0021/20L0072 (antibody, V domains shown) VH: QVQLVESGGGVVQPGRSLRLSCAASGFTFSSLTMSWVRQAPGQGLEWMGTISSGGGRTYYPDSVKGRFTISRDNSKNTLYLQMNSLRAEDTAVYYCARGDYRYDGFAYWGQGTLVTVSS VL: DIQMTQSPSSLSASVGDRVTITCRASYNIDSYLAWYQQKPGKAPKLLIYASTLLVDGVPSRFSGSRSGTDFTLTISSLQPEDFATYYCQHYYSIPYTFGQGTKLEIK in the records?
2.52
